- MEASUREMENT_NOTES: qHTS assay for small molecule agonists of the antioxidant response element (ARE) signaling pathway measured by Nrf2-dependant transcriptional activity - cell viability counter screen (AID 720653); further: on the % scale 0 is the no-effect control and ±100 the full control effect
- CONDITIONS_USED: ARE-bla HepG2 viability, CellTiter-Glo ATP luminescence, 16 h; active compounds read low
Records with an inconclusive call do not appear.
REPORTED_ENDPOINT: max response (%)
Note: unit % is implicit; provide only the numeric part.

CCOP(OCC)OCC
-4.24

For N#Cc1cc(Br)c(O)c(Br)c1 the compound record lists max response as -28.2

For CCOP(=O)(OCC)Oc1ccc2c(C)c(Cl)c(=O)oc2c1 the compound record lists max response as -2.45
